# measured-on: LFA-1 binding to ICAM-1 (Homo sapiens, UniProt P05107+P20701)
# Sequence (P20701 26-1170): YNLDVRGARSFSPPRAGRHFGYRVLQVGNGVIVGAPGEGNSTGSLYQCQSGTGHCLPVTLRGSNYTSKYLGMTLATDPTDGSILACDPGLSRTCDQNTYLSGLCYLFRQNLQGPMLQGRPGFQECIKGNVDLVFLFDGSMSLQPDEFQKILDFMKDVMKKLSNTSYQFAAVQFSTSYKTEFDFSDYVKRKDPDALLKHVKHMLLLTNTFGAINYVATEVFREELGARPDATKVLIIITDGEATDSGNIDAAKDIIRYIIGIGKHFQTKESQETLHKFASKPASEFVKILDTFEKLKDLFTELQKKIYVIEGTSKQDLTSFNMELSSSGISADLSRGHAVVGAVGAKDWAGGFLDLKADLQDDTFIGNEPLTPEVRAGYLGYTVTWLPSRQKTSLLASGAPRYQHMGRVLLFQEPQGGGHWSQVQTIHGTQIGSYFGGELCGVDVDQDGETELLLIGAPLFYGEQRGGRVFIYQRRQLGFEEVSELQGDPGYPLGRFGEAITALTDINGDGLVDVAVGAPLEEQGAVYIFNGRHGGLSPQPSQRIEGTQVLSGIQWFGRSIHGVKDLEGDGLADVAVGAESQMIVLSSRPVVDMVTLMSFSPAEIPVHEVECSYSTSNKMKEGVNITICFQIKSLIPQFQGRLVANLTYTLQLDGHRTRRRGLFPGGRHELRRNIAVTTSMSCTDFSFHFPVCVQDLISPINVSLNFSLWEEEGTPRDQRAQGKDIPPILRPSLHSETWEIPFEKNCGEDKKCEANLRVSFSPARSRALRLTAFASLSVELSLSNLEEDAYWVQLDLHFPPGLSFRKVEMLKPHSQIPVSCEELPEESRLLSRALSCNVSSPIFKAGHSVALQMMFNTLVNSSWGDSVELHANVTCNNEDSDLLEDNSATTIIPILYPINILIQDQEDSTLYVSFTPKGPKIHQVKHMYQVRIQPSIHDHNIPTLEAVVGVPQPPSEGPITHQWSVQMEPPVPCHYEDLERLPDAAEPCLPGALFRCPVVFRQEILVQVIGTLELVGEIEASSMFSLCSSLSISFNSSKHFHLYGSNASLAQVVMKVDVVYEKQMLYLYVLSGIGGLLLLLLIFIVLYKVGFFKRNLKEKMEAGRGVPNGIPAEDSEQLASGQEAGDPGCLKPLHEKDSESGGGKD
# Sequence (P05107 23-769): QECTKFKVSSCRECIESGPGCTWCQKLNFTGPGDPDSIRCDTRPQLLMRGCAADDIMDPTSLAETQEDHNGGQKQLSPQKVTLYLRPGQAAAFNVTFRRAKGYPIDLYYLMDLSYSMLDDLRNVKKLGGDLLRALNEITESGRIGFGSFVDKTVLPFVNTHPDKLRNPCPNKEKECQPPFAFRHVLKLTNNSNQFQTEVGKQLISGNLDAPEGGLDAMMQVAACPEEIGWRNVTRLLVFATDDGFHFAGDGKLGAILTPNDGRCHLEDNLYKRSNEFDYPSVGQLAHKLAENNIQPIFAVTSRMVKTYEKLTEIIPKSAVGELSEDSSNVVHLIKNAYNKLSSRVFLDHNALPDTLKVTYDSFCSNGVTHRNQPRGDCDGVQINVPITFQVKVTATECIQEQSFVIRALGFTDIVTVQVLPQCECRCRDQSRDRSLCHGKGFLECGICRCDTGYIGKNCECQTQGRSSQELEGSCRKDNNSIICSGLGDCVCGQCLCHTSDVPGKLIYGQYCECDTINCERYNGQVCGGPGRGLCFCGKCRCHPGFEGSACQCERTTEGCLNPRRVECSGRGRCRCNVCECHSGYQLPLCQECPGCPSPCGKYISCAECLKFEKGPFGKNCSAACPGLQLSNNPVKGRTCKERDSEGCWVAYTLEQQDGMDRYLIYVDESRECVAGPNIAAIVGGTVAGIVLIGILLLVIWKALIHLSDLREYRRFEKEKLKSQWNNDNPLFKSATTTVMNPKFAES
# method-summary: Inhibition of LFA-1 binding to ICAM-1 (LFA-1/Biotin-sICAM-1 AlphaScreen molecular assay)
# condition-notes: highest compound concentration 1 μM in 1% DMSO, 37° C., 90 minutes
Form field: IC50 (one value per entry).
property-label: IC50 (nM)

compound="C[C@@]1(Cc2ccc(C#N)cc2)C(=O)N(c2cc(Cl)cc(Cl)c2)c2ncc(C(=O)NC3(C(=O)NC4(c5cccc(C(=O)NCCC(N)=O)n5)CC4)CC3)n21 [compound 57]" property_label=IC50 observed_measurement=0.82
compound="CC(C)(O)CNC(=O)c1ccc(C2(NC(=O)C3(NC(=O)c4cnc5n4[C@](C)(Cc4ccc(C#N)cc4)C(=O)N5c4cc(Cl)cc(Cl)c4)CC3)CC2)nc1 [compound 117]" property_label=IC50 observed_measurement=0.37
compound="CNC(=O)c1ccc(C2(NC(=O)C3(NC(=O)c4cnc5n4[C@](C)(Cc4ccc(C#N)cc4)C(=O)N5c4cc(Cl)cc(Cl)c4)CC3)CC2)nc1 [compound 140]" property_label=IC50 observed_measurement=1.5
compound="C[C@@]1(Cc2ccc(C#N)cc2)C(=O)N(c2cc(Cl)cc(Cl)c2)c2ncc(C(=O)NC3(C(=O)NC4(c5cccc(C(N)=O)n5)CC4)CC3)n21 [compound 98]" property_label=IC50 observed_measurement=1.1
compound="C[C@@]1(Cc2ccc(C#N)cc2)C(=O)N(c2cc(Cl)cc(Cl)c2)c2ncc(C(=O)NC3(C(=O)NC4(c5cc(C(=O)NCCc6ccncc6)ccn5)CC4)CC3)n21 [compound 144]" property_label=IC50 observed_measurement=0.34

====

# measured-on: LFA-1 binding to ICAM-1 (Homo sapiens, UniProt P05107+P20701)
# method-summary: Inhibition of LFA-1 binding to ICAM-1 (LFA-1/Biotin-sICAM-1 AlphaScreen molecular assay)
# condition-notes: highest compound concentration 1 μM in 1% DMSO, 37° C., 90 minutes
property-label: IC50 (nM)

molecule=C[C@@]1(Cc2ccc(C#N)cc2)C(=O)N(c2cc(Cl)cc(Cl)c2)c2ncc(C(=O)NC3(C(=O)NC4(c5ccc(C(=O)N6CCC(CO)CC6)cn5)CC4)CC3)n21 unit_abbrev=nM observed_measurement=0.34
molecule=C[C@@]1(Cc2ccc(C#N)cc2)C(=O)N(c2cc(Cl)cc(Cl)c2)c2ncc(C(=O)NC3(C(=O)NC4(c5cc(C(=O)NCc6cccnc6)ccn5)CC4)CC3)n21 unit_abbrev=nM observed_measurement=0.45
molecule=C[C@@]1(Cc2ccc(C#N)cc2)C(=O)N(c2cc(Cl)cc(Cl)c2)c2ncc(C(=O)NC3(C(=O)NC4(c5cc(C(=O)N6CC(O)C6)ccn5)CC4)CC3)n21 unit_abbrev=nM observed_measurement=0.98
molecule=CC(C)(NC(=O)c1ccnc(C2(NC(=O)C3(NC(=O)c4cnc5n4[C@](C)(Cc4ccc(C#N)cc4)C(=O)N5c4cc(Cl)cc(Cl)c4)CC3)CC2)c1)c1ccccc1 unit_abbrev=nM observed_measurement=3
molecule="CN(C)C1CCN(C(=O)c2cccc(C3(NC(=O)C4(NC(=O)c5cnc6n5[C@](C)(Cc5ccc(C#N)cc5)C(=O)N6c5cc(Cl)cc(Cl)c5)CC4)CC3)n2)C1 (some centres unmarked)" unit_abbrev=nM observed_measurement=2.5

====

# measured-on: LFA-1 binding to ICAM-1 (Homo sapiens, UniProt P05107+P20701)
# method-summary: Inhibition of LFA-1 binding to ICAM-1 (LFA-1/Biotin-sICAM-1 AlphaScreen molecular assay)
# condition-notes: highest compound concentration 1 μM in 1% DMSO, 37° C., 90 minutes
Form field: IC50 (one value per entry).
property-label: IC50 (nM)

line_notation=CC(=O)N1CCN(C(=O)c2ccc(C3(NC(=O)C4(NC(=O)c5cnc6n5[C@](C)(Cc5ccc(C#N)cc5)C(=O)N6c5cc(Cl)cc(Cl)c5)CC4)CC3)nc2)CC1 measured_on="LFA-1 binding to ICAM-1 (Homo sapiens, UniProt P05107+P20701)" observed_measurement=1.3
line_notation=C[C@@]1(Cc2ccc(C#N)cc2)C(=O)N(c2cc(Cl)cc(Cl)c2)c2ncc(C(=O)NC3(C(=O)NC4(c5ccc(C(N)=O)cn5)CC4)CC3)n21 measured_on="LFA-1 binding to ICAM-1 (Homo sapiens, UniProt P05107+P20701)" observed_measurement=1.4
line_notation=C[C@@H](NC(=O)c1ccc(C2(NC(=O)C3(NC(=O)c4cnc5n4[C@](C)(Cc4ccc(C#N)cc4)C(=O)N5c4cc(Cl)cc(Cl)c4)CC3)CC2)nc1)C(N)=O measured_on="LFA-1 binding to ICAM-1 (Homo sapiens, UniProt P05107+P20701)" observed_measurement=0.37
line_notation=C[C@@]1(Cc2ccc(C#N)cc2)C(=O)N(c2cc(Cl)cc(Cl)c2)c2ncc(C(=O)NC3(C(=O)NC4(c5cccc(C(=O)N6CCC(CO)CC6)n5)CC4)CC3)n21 measured_on="LFA-1 binding to ICAM-1 (Homo sapiens, UniProt P05107+P20701)" observed_measurement=1.8
line_notation=C[C@@]1(Cc2ccc(C#N)cc2)C(=O)N(c2cc(Cl)cc(Cl)c2)c2ncc(C(=O)NC3(C(=O)NC4(c5ccc(C(=O)N6CC[C@@H](O)C6)cn5)CC4)CC3)n21 measured_on="LFA-1 binding to ICAM-1 (Homo sapiens, UniProt P05107+P20701)" observed_measurement=0.59

====

# measured-on: LFA-1 binding to ICAM-1 (Homo sapiens, UniProt P05107+P20701)
# method-summary: Inhibition of LFA-1 binding to ICAM-1 (LFA-1/Biotin-sICAM-1 AlphaScreen molecular assay)
# condition-notes: highest compound concentration 1 μM in 1% DMSO, 37° C., 90 minutes
property-label: log10(IC50) (log10 of the value in nM)

compound=C[C@@]1(Cc2ccc(C#N)cc2)C(=O)N(c2cc(Cl)cc(Cl)c2)c2ncc(C(=O)NC3(C(=O)NC4(c5cccc(C(=O)N6CCOCC6)n5)CC4)CC3)n21 measured_on="LFA-1 binding to ICAM-1 (Homo sapiens, UniProt P05107+P20701)" property_label=log10(IC50) observed_measurement=-0.25
compound=C[C@@]1(Cc2ccc(C#N)cc2)C(=O)N(c2cc(Cl)cc(Cl)c2)c2ncc(C(=O)NC3(C(=O)NC4(c5ccc(C(=O)NC6CC6)cn5)CC4)CC3)n21 measured_on="LFA-1 binding to ICAM-1 (Homo sapiens, UniProt P05107+P20701)" property_label=log10(IC50) observed_measurement=0.41
compound="C[C@@]1(Cc2ccc(C#N)cc2)C(=O)N(c2cc(Cl)cc(Cl)c2)c2ncc(C(=O)NC3(C(=O)NC4(c5ccc(C(=O)N6CCCCC6CO)cn5)CC4)CC3)n21 (some centres unmarked)" measured_on="LFA-1 binding to ICAM-1 (Homo sapiens, UniProt P05107+P20701)" property_label=log10(IC50) observed_measurement=-0.17
compound=C[C@@]1(Cc2ccc(C#N)cc2)C(=O)N(c2cc(Cl)cc(Cl)c2)c2ncc(C(=O)NC3(C(=O)NC4(c5ccc(C(=O)NCC(N)=O)cn5)CC4)CC3)n21 measured_on="LFA-1 binding to ICAM-1 (Homo sapiens, UniProt P05107+P20701)" property_label=log10(IC50) observed_measurement=-0.57
compound=C[C@H](CO)NC(=O)c1ccc(C2(NC(=O)C3(NC(=O)c4cnc5n4[C@](C)(Cc4ccc(C#N)cc4)C(=O)N5c4cc(Cl)cc(Cl)c4)CC3)CC2)nc1 measured_on="LFA-1 binding to ICAM-1 (Homo sapiens, UniProt P05107+P20701)" property_label=log10(IC50) observed_measurement=-0.10
compound=C[C@@]1(Cc2ccc(C#N)cc2)C(=O)N(c2cc(Cl)cc(Cl)c2)c2ncc(C(=O)NC3(C(=O)NC4(c5cc(C(=O)NCCc6ccccn6)ccn5)CC4)CC3)n21 measured_on="LFA-1 binding to ICAM-1 (Homo sapiens, UniProt P05107+P20701)" property_label=log10(IC50) observed_measurement=-0.09
compound=C[C@@]1(Cc2ccc(C#N)cc2)C(=O)N(c2cc(Cl)cc(Cl)c2)c2ncc(C(=O)NC3(C(=O)NC4(c5cccc(C(=O)NCc6ccncc6)n5)CC4)CC3)n21 measured_on="LFA-1 binding to ICAM-1 (Homo sapiens, UniProt P05107+P20701)" property_label=log10(IC50) observed_measurement=0.72
compound=C[C@@]1(Cc2ccc(C#N)cc2)C(=O)N(c2cc(Cl)cc(Cl)c2)c2ncc(C(=O)NC3(C(=O)NC4(c5cccc(C(=O)N6CCC(C(N)=O)CC6)n5)CC4)CC3)n21 measured_on="LFA-1 binding to ICAM-1 (Homo sapiens, UniProt P05107+P20701)" property_label=log10(IC50) observed_measurement=-0.55
compound=C[C@@]1(Cc2ccc(C#N)cc2)C(=O)N(c2cc(Cl)cc(Cl)c2)c2ncc(C(=O)NC3(C(=O)NC4(c5cc(C(=O)NCc6ccco6)ccn5)CC4)CC3)n21 measured_on="LFA-1 binding to ICAM-1 (Homo sapiens, UniProt P05107+P20701)" property_label=log10(IC50) observed_measurement=-0.10
compound="CC(=O)NC1CCN(C(=O)c2ccnc(C3(NC(=O)C4(NC(=O)c5cnc6n5[C@](C)(Cc5ccc(C#N)cc5)C(=O)N6c5cc(Cl)cc(Cl)c5)CC4)CC3)c2)C1 (some centres unmarked)" measured_on="LFA-1 binding to ICAM-1 (Homo sapiens, UniProt P05107+P20701)" property_label=log10(IC50) observed_measurement=0.08
compound="CC(NC(=O)c1ccnc(C2(NC(=O)C3(NC(=O)c4cnc5n4[C@](C)(Cc4ccc(C#N)cc4)C(=O)N5c4cc(Cl)cc(Cl)c4)CC3)CC2)c1)c1cccnc1 (some centres unmarked)" measured_on="LFA-1 binding to ICAM-1 (Homo sapiens, UniProt P05107+P20701)" property_label=log10(IC50) observed_measurement=0.00
